Test system: IL-1β release, THP-1 cells
assay.overview: IL-1β release assay in differentiated THP-1 cells stimulated with BzATP (Example 9)
Format: cell-based
measurement.conditions: Homo sapiens; THP-1 cells, BzATP 250 uM, four parameter logistic fit
Description: THP-1 cells (ATCC Cat # 285-IF-100) are plated in 96 well plates at a concentration of 200,000 cells per well and allowed to differentiate in RPMI-1640 media (ATCC Cat # 30-2001) containing 10% FBS, 100 IU/mL penicillin, 100 ug/mL streptomycin, 100 ng/mL LPS and 100 ng/mL IFN-γ for 16 hours. […] 30 uL of cell supernatant is then collected and IL-1β levels determined via ELISA (R&D systems Cat. # HSLB50) according to manufacturer's recommendations using the Tecan Safire plate reader. […]
test.readout: IC50 (nM)
# output: bare number, implied unit nM

Ask | Given `Cc1ccc2c(c1NC(=O)Cc1ccc(C(F)(F)F)c(F)c1)CCN(C(=O)C(C)(C)O)C2` , respond with its IC50.
Reply | 32.2

Ask | Given CCC(O)CN1CCc2c(cccc2NC(=O)Cc2ccc(C(F)(F)F)c(F)c2)C1 (stereo not shown) , respond with its IC50.
Reply | 338

Ask | Given `C[C@H](NC(=O)OC(C)(C)C)C(=O)N1CCc2c(cccc2NC(=O)Cc2ccc(C(F)(F)F)c(F)c2)C1` , respond with its IC50.
Reply | 473

Ask | Given `O=C(Cc1ccc(C(F)(F)F)c(F)c1)Nc1cccc2c1CCN(C(=O)COC1CCNCC1)C2` , respond with its IC50.
Reply | 890

Ask | Given CC(C)(C)OC(=O)NC(Cc1ccccc1)C(=O)N1CCc2c(cccc2NC(=O)Cc2ccc(C(F)(F)F)c(F)c2)C1 (stereo not shown) , respond with its IC50.
Reply | 385

Ask | Given `O=C(Cc1ccc(C(F)(F)F)c(F)c1)Nc1c(Cl)ccc2c1CCN(C(=O)CC1CCCC1)C2` , respond with its IC50.
Reply | 172

Ask | Given O=C(Cc1ccc(C(F)(F)F)c(F)c1)Nc1cccc2c1CCN(CC(O)Cc1ccccc1)C2 (stereo not shown) , respond with its IC50.
Reply | 425

---

System: IL-1β release, THP-1 cells
assay.overview: IL-1β release assay in differentiated THP-1 cells stimulated with BzATP (Example 9)
Assay type: cell-based
measurement.conditions: Homo sapiens; THP-1 cells, BzATP 250 uM, four parameter logistic fit
pIC50: −log10 of the molar value.
Classification field: Criterion met = pIC50 at or over 7; Criterion not met = pIC50 under 7.

Ask | Hi team, for CCCC(O)CN1CCc2c(cccc2NC(=O)Cc2ccc(C(F)(F)F)c(F)c2)C1 (centres unmarked) [Compound 3063] , is the recorded pIC50 at or above 7?
Reply | Criterion not met

Ask | Hi team, for O=C(Cc1cccc(C(F)(F)F)c1F)Nc1c(Cl)ccc2c1CCN(S(=O)(=O)C1CC1)C2 [Compound 3313] , is the recorded pIC50 at or above 7?
Reply | Criterion met

Ask | Hi team, for Cc1ncccc1C(=O)N1CCc2c(cccc2NC(=O)Cc2ccc(C(F)(F)F)c(F)c2)C1 [Compound 3044] , is the recorded pIC50 at or above 7?
Reply | Criterion not met

Ask | Hi team, for O=C(Cc1ccc(C(F)(F)F)c(F)c1)Nc1cccc2c1CCN(CC(O)c1ccc(F)cc1)C2 (centres unmarked) [Compound 3065] , is the recorded pIC50 at or above 7?
Reply | Criterion not met

Ask | Hi team, for CS(=O)(=O)N1CCc2c(ccc(Cl)c2NC(=O)Cc2ccc(C(F)(F)F)cc2)C1 [Compound 3050] , is the recorded pIC50 at or above 7?
Reply | Criterion not met

Ask | Hi team, for COc1ccc2c(c1NC(=O)Cc1ccc(C(F)(F)F)c(F)c1)CCN(C(=O)C(C)(C)O)C2 [Compound 3481] , is the recorded pIC50 at or above 7?
Reply | Criterion not met

Ask | Hi team, for CC(C)(C)OC(=O)N1CCC(OCC(=O)N2CCc3c(cccc3NC(=O)Cc3ccc(C(F)(F)F)c(F)c3)C2)CC1 [Compound 3047] , is the recorded pIC50 at or above 7?
Reply | Criterion not met

Ask | Hi team, for Cc1ccc2c(c1NC(=O)Cc1ccc(C(F)(F)F)c(F)c1)CCN(C(=O)C(C)C)C2 [Compound 3215] , is the recorded pIC50 at or above 7?
Reply | Criterion met

---

Kindly state pIC50 for each of the entries shown.
Tested on: IL-1β release, THP-1 cells
assay.overview: IL-1β release assay in differentiated THP-1 cells stimulated with BzATP (Example 9)
Format: cell-based
measurement.conditions: Homo sapiens; THP-1 cells, BzATP 250 uM, four parameter logistic fit
Friendly reminder that pIC50 comes from taking -log10 of the concentration in mol/L.

Ask | Given `O=C(Cc1ccc(C(F)(F)F)c(F)c1)Nc1cccc2c1CCN(C(=O)[C@H]1CCCN1)C2` , respond with its pIC50.
Reply | 7.14

Ask | Given `CC(C)S(=O)(=O)N1CCc2c(ccc(Cl)c2NC(=O)Cc2ccc(C(F)(F)F)c(F)c2)C1` , respond with its pIC50.
Reply | 7.15

Ask | Given `Cc1ccc(C)c(S(=O)(=O)N2CCc3c(ccc(Cl)c3NC(=O)Cc3ccc(C(F)(F)F)cc3)C2)c1` , respond with its pIC50.
Reply | 7.08

Ask | Given `Cc1ccc2c(c1NC(=O)Cc1cccc(C(F)(F)F)c1F)CCN(C(=O)[C@H]1CCCN1)C2` , respond with its pIC50.
Reply | 7.12

Ask | Given `O=C(Cc1ccc(C(F)(F)F)c(F)c1)Nc1cccc2c1CCN(C(=O)CC1CCCCCC1)C2` , respond with its pIC50.
Reply | 7.08

Ask | Given `Cc1ccc2c(c1NC(=O)Cc1ccc(C(F)(F)F)c(F)c1)CCN(C(=O)CCC1CCCCC1)C2` , respond with its pIC50.
Reply | 7.21

Ask | Given `CCCCS(=O)(=O)N1CCc2c(ccc(C)c2NC(=O)Cc2ccc(C(F)(F)F)c(F)c2)C1` , respond with its pIC50.
Reply | 7.18

Ask | Given `O=C(Cc1ccc(C(F)(F)F)c(F)c1)Nc1cccc2c1CCN(C(=O)CC1CCCCC1)C2` , respond with its pIC50.
Reply | 6.81

---

Test system: IL-1β release, THP-1 cells
assay.overview: IL-1β release assay in differentiated THP-1 cells stimulated with BzATP (Example 9)
Type: cell-based
measurement.conditions: Homo sapiens; THP-1 cells, BzATP 250 uM, four parameter logistic fit
Kindly state pIC50 for each of the entries shown.
Friendly reminder that pIC50 comes from taking -log10 of the concentration in mol/L.

Ask | Given `Cc1ccc2c(c1NC(=O)Cc1ccc(C(F)(F)F)c(F)c1)CCN(S(=O)(=O)C(C)C)C2` , respond with its pIC50.
Reply | 7.08

Ask | Given `Cc1ccc2c(c1NC(=O)Cc1ccc(C(F)(F)F)cc1)CCN(C(=O)[C@H]1CCCN1)C2` , respond with its pIC50.
Reply | 7.19

Ask | Given O=C(Cc1ccc(C(F)(F)F)c(F)c1)Nc1cccc2c1CCN(C(=O)C1COc3ccccc3C1)C2 (stereo not drawn) , respond with its pIC50.
Reply | 7.19
